# pEC50 per entry
Test system: L1210
Assay: Cytotoxicity against mouse L1210 cells assessed as growth inhibition measured at 72 hrs by trypan blue exclusion assay
Format: functional
Conditions: L1210, 72 h, read-out: ED50 (the source's name)
pEC50: −log10 of the molar value.
metricName: pEC50

molecule: C[C@]12C=CC(=O)C=C1CC[C@@H]1[C@@H]2[C@@H](O)C[C@@]2(C)[C@H]1CC[C@]2(O)C(=O)CO[P+]([O-])(O)OC[C@H]1O[C@@H](n2ccc(N)nc2=O)[C@@H](O)[C@@H]1O (stereo partly specified)
valueModifier: =
observedValue: 7.30
//
molecule: C[C@]12C=CC(=O)C=C1CC[C@@H]1[C@@H]2C(=O)C[C@@]2(C)[C@H]1CC[C@]2(O)C(=O)CO
valueModifier: <
observedValue: 4.00
//
molecule: C[C@]12C=CC(=O)C=C1CC[C@@H]1[C@@H]2C(=O)C[C@@]2(C)[C@H]1CC[C@]2(O)C(=O)CO[P+]([O-])(O)OC[C@H]1O[C@@H](n2ccc(N)nc2=O)[C@@H](O)[C@@H]1O (stereo partly specified)
valueModifier: =
observedValue: 6.30
//
molecule: C[C@]12C=CC(=O)C=C1CC[C@@H]1[C@@H]2[C@@H](O)C[C@@]2(C)[C@H]1CC[C@]2(O)C(=O)CO
valueModifier: =
observedValue: 4.00
//
molecule: Nc1ccn([C@@H]2O[C@H](COP(=O)(O)O)[C@@H](O)[C@@H]2O)c(=O)n1 [CYTARABINE 5'-PHOSPHATE]
valueModifier: =
observedValue: 7.30
//
molecule: Nc1ccn([C@@H]2O[C@H](CO)[C@@H](O)[C@@H]2O)c(=O)n1
valueModifier: =
observedValue: 7.00

====

System: L1210
Experiment: Antitumor activity against mouse L1210 cells allografted in C3D2F1/J mouse assessed as increase in life span at 50 mg/kg, ip qd administered for 5 days relative to control
Type: functional
Settings: 120 h, route intraperitoneal
metricName: ILS at 50 mg/kg (%)

compound: Nc1ccn([C@@H]2O[C@H](CO)[C@@H](O)[C@@H]2O)c(=O)n1 [CYTARABINE]
observedValue: 11.1

compound: C[C@]12C=CC(=O)C=C1CC[C@@H]1[C@@H]2C(=O)C[C@@]2(C)[C@H]1CC[C@]2(O)C(=O)CO[P+]([O-])(O)OC[C@H]1O[C@@H](n2ccc(N)nc2=O)[C@@H](O)[C@@H]1O (some centres undefined)
observedValue: 100

compound: Nc1ccn([C@@H]2O[C@H](COP(=O)(O)O)[C@@H](O)[C@@H]2O)c(=O)n1 [CYTARABINE 5'-PHOSPHATE]
observedValue: 0

compound: C[C@]12C=CC(=O)C=C1CC[C@@H]1[C@@H]2[C@@H](O)C[C@@]2(C)[C@H]1CC[C@]2(O)C(=O)CO[P+]([O-])(O)OC[C@H]1O[C@@H](n2ccc(N)nc2=O)[C@@H](O)[C@@H]1O (some centres undefined)
observedValue: 88.9

====

System: Mus musculus
Assay: Toxicity in C3D2F1/J mouse allografted with mouse L1210 cells assessed as body weight change at 50 mg/kg, ip qd administered for 5 days measured on day 8 (reference value: 1.81 +/- 0.79 g)
Type: organism-based
Parameters: dose 50 mg/kg, route intraperitoneal
Conditions: in vivo, 120 h
metricName: Activity

compound: C[C@]12C=CC(=O)C=C1CC[C@@H]1[C@@H]2[C@@H](O)C[C@@]2(C)[C@H]1CC[C@]2(O)C(=O)CO[P+]([O-])(O)OC[C@H]1O[C@@H](n2ccc(N)nc2=O)[C@@H](O)[C@@H]1O (some centres undefined)
observedValue: -0.28 g
--
compound: Nc1ccn([C@@H]2O[C@H](CO)[C@@H](O)[C@@H]2O)c(=O)n1 [CYTARABINE]
observedValue: -4.2 g
--
compound: C[C@]12C=CC(=O)C=C1CC[C@@H]1[C@@H]2C(=O)C[C@@]2(C)[C@H]1CC[C@]2(O)C(=O)CO[P+]([O-])(O)OC[C@H]1O[C@@H](n2ccc(N)nc2=O)[C@@H](O)[C@@H]1O (some centres undefined)
observedValue: -0.3 g
--
compound: Nc1ccn([C@@H]2O[C@H](COP(=O)(O)O)[C@@H](O)[C@@H]2O)c(=O)n1 [CYTARABINE 5'-PHOSPHATE]
observedValue: -4.32 g
